EXPERIMENTAL_PROTOCOL: Solubility of PAG in organic solvents at 20° C.
Assay type: physicochemical
CONDITION_NOTES: γ-Butyrolactone

MOLECULE	Solubility (w/w%) GBL [% w/w%]
O=C1c2cccc3c(C#Cc4ccccc4)ccc(c23)C(=O)N1OS(=O)(=O)C(F)(F)F [A, reference compound]	0.9
CCCCCCC#Cc1ccc2c3c(cccc13)C(=O)N(OS(=O)(=O)C(F)(F)C(F)(F)C(F)(F)C(F)(F)F)C2=O	2.2
CCCCC#Cc1ccc2c3c(cccc13)C(=O)N(OS(=O)(=O)C(F)(F)F)C2=O [B, reference compound]	2.3
CCCCC#Cc1ccc2c3c(cccc13)C(=O)N(OS(=O)(=O)C(F)(F)C(F)(F)C(F)(F)C(F)(F)F)C2=O	1.5
CCCC(=O)OCC#Cc1ccc2c3c(cccc13)C(=O)N(OS(=O)(=O)C(F)(F)F)C2=O	32.4
O=C1c2cccc3cccc(c23)C(=O)N1OS(=O)(=O)C(F)(F)F [NIT, N-Hydroxynaphthalimide triflate, reference compound]	2.2
CCCCCCC#Cc1ccc2c3c(cccc13)C(=O)N(OS(=O)(=O)C(F)(F)F)C2=O	23.1

---

EXPERIMENTAL_PROTOCOL: Solubility of PAG in organic solvents at 20° C.
Format: physicochemical
CONDITION_NOTES: cyclohexanone

COMPOUND	Solubility (w/w%) Cyclohexanone
CCCCCCC#Cc1ccc2c3c(cccc13)C(=O)N(OS(=O)(=O)C(F)(F)F)C2=O	52.4% w/w%
CCCCC#Cc1ccc2c3c(cccc13)C(=O)N(OS(=O)(=O)C(F)(F)C(F)(F)C(F)(F)C(F)(F)F)C2=O	19.7% w/w%
CCCCCCC#Cc1ccc2c3c(cccc13)C(=O)N(OS(=O)(=O)C(F)(F)C(F)(F)C(F)(F)C(F)(F)F)C2=O	42.0% w/w%
CCCC(=O)OCC#Cc1ccc2c3c(cccc13)C(=O)N(OS(=O)(=O)C(F)(F)F)C2=O	55.4% w/w%
O=C1c2cccc3c(C#Cc4ccccc4)ccc(c23)C(=O)N1OS(=O)(=O)C(F)(F)F [A, reference compound]	3.5% w/w%
O=C1c2cccc3cccc(c23)C(=O)N1OS(=O)(=O)C(F)(F)F [NIT, N-Hydroxynaphthalimide triflate, reference compound]	5.9% w/w%
CCCCC#Cc1ccc2c3c(cccc13)C(=O)N(OS(=O)(=O)C(F)(F)F)C2=O [B, reference compound]	11.5% w/w%

---

EXPERIMENTAL_PROTOCOL: Photolysis of PAGs in acetonitrile, irradiation at 365 nm (photoreactivity)
Type: physicochemical
CONDITION_NOTES: solubility in PGMEA times relative photoreactivity at 365 nm

COMPOUND	READOUT_UNITS	Solubility × Photoreactivity
CCCCC#Cc1ccc2c3c(cccc13)C(=O)N(OS(=O)(=O)C(F)(F)C(F)(F)C(F)(F)C(F)(F)F)C2=O [Compound T1]	%	77.2
CCCCCCC#Cc1ccc2c3c(cccc13)C(=O)N(OS(=O)(=O)C(F)(F)C(F)(F)C(F)(F)C(F)(F)F)C2=O [Compound T3]	%	198
CCCCCCC#Cc1ccc2c3c(cccc13)C(=O)N(OS(=O)(=O)C(F)(F)F)C2=O [Compound T2]	%	394
O=C1c2cccc3cccc(c23)C(=O)N1OS(=O)(=O)C(F)(F)F [NIT, N-Hydroxynaphthalimide triflate, reference compound]	%	1.7
CCCC(=O)OCC#Cc1ccc2c3c(cccc13)C(=O)N(OS(=O)(=O)C(F)(F)F)C2=O [Compound T5]	%	200
CCCCC#Cc1ccc2c3c(cccc13)C(=O)N(OS(=O)(=O)C(F)(F)F)C2=O [B, reference compound]	%	48.8
O=C1c2cccc3c(C#Cc4ccccc4)ccc(c23)C(=O)N1OS(=O)(=O)C(F)(F)F [A, reference compound]	%	2.5

---

EXPERIMENTAL_PROTOCOL: Solubility of PAG in organic solvents at 20° C.
Format: physicochemical
CONDITION_NOTES: Table 9; Propylene glycol monomethyl ether acetate

COMPOUND	Solubility (w/w%) in PGMEA, % w/w%
CCCCC#Cc1ccc2c3c(cccc13)C(=O)N(OS(=O)(=O)C(F)(F)C(F)(F)C(F)(F)C(F)(F)F)C2=O	8.3
CCCC(=O)OCC#Cc1ccc2c3c(cccc13)C(=O)N(OS(=O)(=O)C(F)(F)F)C2=O	50.1
CCCCCCC#Cc1ccc2c3c(cccc13)C(=O)N(OS(=O)(=O)C(F)(F)C(F)(F)C(F)(F)C(F)(F)F)C2=O	20.6
CCCCCCC#Cc1ccc2c3c(cccc13)C(=O)N(OS(=O)(=O)C(F)(F)F)C2=O	45.8
CCCCC#Cc1ccc2c3c(cccc13)C(=O)N(OS(=O)(=O)C(F)(F)F)C2=O [B, reference compound]	6.1
O=C1c2cccc3c(C#Cc4ccccc4)ccc(c23)C(=O)N1OS(=O)(=O)C(F)(F)F [A, reference compound]	1.0
O=C1c2cccc3cccc(c23)C(=O)N1OS(=O)(=O)C(F)(F)F [NIT, N-Hydroxynaphthalimide triflate, reference compound]	1.7

---

EXPERIMENTAL_PROTOCOL: Solubility of PAG in organic solvents at 20° C.
Assay type: physicochemical
CONDITION_NOTES: Propylene glycol monomethyl ether acetate
Property: Solubility (w/w%) PGMEA; scope: individual compounds

COMPOUND	Solubility (w/w%) PGMEA
CCCCC#Cc1ccc2c3c(cccc13)C(=O)N(OS(=O)(=O)C(F)(F)C(F)(F)C(F)(F)C(F)(F)F)C2=O	8.3% w/w%
CCCC(=O)OCC#Cc1ccc2c3c(cccc13)C(=O)N(OS(=O)(=O)C(F)(F)F)C2=O	50.1% w/w%
O=C1c2cccc3cccc(c23)C(=O)N1OS(=O)(=O)C(F)(F)F [NIT, N-Hydroxynaphthalimide triflate, reference compound]	1.7% w/w%
CCCCCCC#Cc1ccc2c3c(cccc13)C(=O)N(OS(=O)(=O)C(F)(F)C(F)(F)C(F)(F)C(F)(F)F)C2=O	20.6% w/w%
CCCCCCC#Cc1ccc2c3c(cccc13)C(=O)N(OS(=O)(=O)C(F)(F)F)C2=O	45.8% w/w%
CCCCC#Cc1ccc2c3c(cccc13)C(=O)N(OS(=O)(=O)C(F)(F)F)C2=O [B, reference compound]	6.1% w/w%
O=C1c2cccc3c(C#Cc4ccccc4)ccc(c23)C(=O)N1OS(=O)(=O)C(F)(F)F [A, reference compound]	1.0% w/w%
